This collection of values is drawn from PubChem BioAssay (NCI).

Entries annotated with measured TGI
- System: NCI-H460 lung
- Protocol: NCI tumour cell line growth inhibition, 48 h
Measured Property: TGI

CSC12c3cc(C)n(-c4ccc([N+](=O)[O-])cc4)c3CC(C)(C)CN1C(=O)C2Oc1ccccc1 (stereo not given)    > 100 µM
COc1ccc(/C=C\c2cc(OC)c(OC)c(OC)c2)cc1OCC(=O)Nc1nc2ccc(F)cc2s1    > 100 µM
CCCCCCCCCCCCCCCC1=NCC[N+]1(CCO)CCO    3.47 µM
COc1ccc(N=c2oc3ccccc3cc2C(N)=O)cc1    > 100 µM
NC1N=C(c2ccc(Cl)cc2)C2=C(N1)c1ccccc1CC2 (stereo not given)    > 100 µM
COc1cccc2c1c1ccc3c(c1n2C)C(=O)C=CC3=O    > 100 µM
COc1cc(C2C(Cl)C(=O)N2NC(=O)Cc2ccccc2)cc(Br)c1O (stereo not given)    > 100 µM
CC(C)(C)C(=O)OCOP(=O)(NCc1ccccc1)C1CCCN(O)C1=O (stereo not given)    15.5 µM
Cc1ccc(C)n1-c1ccccc1C1C=Cn2c(=O)nnc3c(OC(C)C)c(OC(C)C)c(O)c1c32 (stereo not given)    > 100 µM
COc1ccc2ncn(-c3cc(O[C@H](C)c4ccccc4C(F)(F)F)c(C(N)=O)s3)c2c1    2.99 µM
